Reported TGI values for the following compounds.
# Test system: MCF7 breast
# Assay info: NCI tumour cell line growth inhibition, 48 h

Study these solved cases before continuing.
| Compound | TGI |
| --- | --- |
| CCCCCNC(=O)OC1CCn2c1nc1c2C(=O)C(C)=C(N2CC2)C1=O (stereo not drawn) | 2.21 µM |
| O=P1(C(O)c2ccccc2)N(Cc2ccccc2)[C@@H]2CCCC[C@H]2N1Cc1ccccc1 (stereo partly drawn) | > 100 µM |
| N=c1sc(N2CCOCC2)nn1CC(=O)c1ccccc1 | > 100 µM |

Task: // lookup TGI for O=C(Nc1cccc(C(F)(F)F)c1)Nc1ccc(OCc2nnc(-c3ccccc3)o2)c(F)c1
Result: 24.4 µM

Task: Same again, this time with COc1cc2c(cc1OCCCN1CCN(CCCn3c4ccccc4c4ccccc43)CC1)N=C[C@@H]1CCCN1C2=O
Result: 0.461 µM

Task: Same again, this time with COc1cc(/C=C/C(=O)c2c(-c3ccc(Cl)cc3)nc3sc(C)nn23)cc(OC)c1OC
Result: > 100 µM

Task: Same again, this time with COc1ccc(Cl)cc1Nc1nc(C(F)(F)F)ccc1C(=O)N/N=C/c1ccc(Cl)cc1
Result: > 100 µM

Task: Same again, this time with C/C(=N\NC(=O)c1ccncc1)c1ccccc1O
Result: > 100 µM

* * *

Reported TGI values for the following compounds.
# Test system: IGROV1 ovarian
# Assay info: NCI tumour cell line growth inhibition, 48 h

| Compound | TGI |
| --- | --- |
| CC(C)S1=C2C(=O)CC(C)(C)CC2=Nc2ccccc21 (stereo not given) | > 100 µM |
| O=P1(C(O)c2ccccc2)N(Cc2ccccc2)[C@@H]2CCCC[C@H]2N1Cc1ccccc1 (stereo not given in full) | 49.9 µM |

Task: // lookup TGI for CSC(=NCCCN=C(NS(=O)(=O)c1ccc(Cl)cc1)SC)NS(=O)(=O)c1ccc(Cl)cc1
Result: > 100 µM

Task: Same again, this time with CC(C)[C@H](NC(=O)OCc1ccccc1)C(=O)N[C@H](/C=C/C(=O)OC(C)(C)C)CO
Result: > 100 µM

Task: Same again, this time with COc1ccc(OC)c2c(Nc3ccc(S(=O)(=O)O)c4cc(S(=O)(=O)O)cc(S(=O)(=O)O)c34)cc(C)nc12
Result: > 100 µM

Task: Same again, this time with COC(=O)C1CCC(=S)N1C(C)=O (stereo not given)
Result: > 100 µM

Task: Same again, this time with COc1ccc(S(=O)(=O)NCCCNc2nccc(-c3c(-c4ccc(F)cc4)nc4sccn34)n2)cc1
Result: > 100 µM

Task: Same again, this time with CCOC(=O)c1c(/C=N\Nc2ccccc2)nc2ccccc2c1-c1ccccc1
Result: > 100 µM

Task: Same again, this time with COC(=O)C(NC(=O)c1ccccc1)c1ccc(OC)c(I)c1 (stereo not given)
Result: > 100 µM

Task: Same again, this time with CCCSC1=N/C(=C\c2ccco2)C(=O)N1
Result: > 100 µM

Task: Same again, this time with Nc1c(/C=C/c2cc3cc(C4=NCCN4)ccc3o2)[nH]c2cc(C3=NCCN3)ccc12
Result: > 100 µM

Task: Same again, this time with CS(=O)(=O)Nc1ccc(Nc2c3ccccc3nc3cc(Cl)ccc23)cc1
Result: 19 µM

Task: Same again, this time with Cc1c(-c2ccc(N3CCc4cccc(C(=O)Nc5nc6ccccc6s5)c4C3)nc2C(=O)O)cnn1CC12CC3CC(CC(C3)C1)C2
Result: 31.5 µM

* * *

# Tested on: LXFL 529 NSCLC
# Assay info: NCI tumour cell line growth inhibition, 48 h
Reported TGI values for the following compounds.

Study these solved cases before continuing.
| Compound | TGI |
| --- | --- |
| CN1C/C(=C\c2ccco2)c2nc(N)nc(-c3ccco3)c2C1 | > 100 µM |
| CC(C)=NO.CC(C)=NO.CC(C)=NO.CC(C)=NO.[Ti] | > 100 µM |

Task: // lookup TGI for Nc1nc(N)c(-c2ccccc2)c(C(=O)Nc2nccs2)n1
Result: > 100 µM

Task: Same again, this time with NS(=O)(=O)C1CCCCC1C(=O)NNC(=O)C(=O)Nc1nc(=S)[nH][nH]1 (stereo unspecified)
Result: > 100 µM

Task: Same again, this time with CCOC(=O)c1c(/C=N\Nc2ccccc2)nc2ccccc2c1-c1ccccc1
Result: > 100 µM

Task: Same again, this time with CC(=O)OCC1OC(OC(C)=O)C(NC#N)C(OC(C)=O)C1OC(C)=O (stereo unspecified)
Result: > 100 µM

Task: Same again, this time with COC(=O)c1ccccc1NCc1cc(O)ccc1O
Result: 32.9 µM

Task: Same again, this time with COc1ccc(Sc2ccccc2[N+](=O)[O-])cc1
Result: > 100 µM

Task: Same again, this time with NC1=NN(c2ccccc2)C(=O)C1/C(=N\NC(=O)c1cc2ccccc2cc1O)C(=O)Nc1ccc(Cl)cc1 (stereo unspecified)
Result: > 100 µM

Task: Same again, this time with COC(=O)/C(=C/c1ccc(OC)cc1)c1cc(OC)c(OC)c(OC)c1
Result: > 100 µM

Task: Same again, this time with O=C1NC2(CCCCC2)C2=C1CCCCC2
Result: > 100 µM

* * *

Reported TGI values for the following compounds.
# System: HCT-116 colon
# Assay info: NCI tumour cell line growth inhibition, 48 h
Express it in µM; write the number only.

Study these solved cases before continuing.
| Structure notation | Test system | TGI / µM |
| --- | --- | --- |
| Cn1nc(-c2ccccc2)c(C(=O)/C=C/c2ccccc2)c(N2CCCC2)c1=O | HCT-116 colon | 19.2 |
| Cc1c(-c2ccc(N3CCc4cccc(C(=O)Nc5nc6ccccc6s5)c4C3)nc2C(=O)O)cnn1CC12CC3CC(CC(C3)C1)C2 | HCT-116 colon | 14.9 |
| COc1ccc(N=C(SSC(=Nc2ccc(OC)cc2)c2ccc([N+](=O)[O-])o2)c2ccc([N+](=O)[O-])o2)cc1 | HCT-116 colon | 3.49 |

Now for the compound whose TGI we want.
Task: // lookup TGI for COc1ccc2c3c(c4cc(OC)c(OC)cc4c2c1)C[C@H]1CCCCN1C3
Result: 0.011

* * *

# Test system: EKVX NSCLC
# Assay info: NCI tumour cell line growth inhibition, 48 h; in the data active = GI50 below about 0.43 µM; inactive = the rest
Your response should consist of one outcome taken from active, inactive

Solved cases (4 shown):
| Compound | Class label |
| --- | --- |
| O=C(c1ccccc1)c1ccc(N2C(=O)C3C4c5ccccc5C(/C=C/C(=O)c5ccccn5)(c5ccccc54)C3C2=O)cc1 (stereo not given) | inactive |
| O=C1COc2c(CCNCCN(C(=O)CCNCCc3ccc(Cl)c(Cl)c3)C3CCCCC3)ccc(O)c2N1 | inactive |
| Oc1ccc(/C=N/Nc2nnc(N/N=C/c3ccc(O)cc3O)c3ccccc23)c(O)c1 | active |
| C/C(=N\NC(=O)c1ccncc1)c1ccccc1O | inactive |

Now for a further compound.
Task: Please let me know the test result on file for CC(=O)Nc1ccc(C(=O)COc2cccc(/C=C3\CCc4ccccc4C3=O)c2)cc1 .
Result: inactive

* * *

# System: SF-268 CNS
# Assay info: NCI tumour cell line growth inhibition, 48 h
Reported GI50 values for the following compounds.

Study these solved cases before continuing.
| Compound | GI50 |
| --- | --- |
| Oc1ccc(CCNc2nc3ccccc3c3[nH]c4ccccc4c23)cc1 | 1.71 µM |
| Brc1ccc2c(c1)-c1ccccc1C1=NCCN12 | 1.77 µM |
| Cc1cc(N(CCCl)CCCl)ccc1/C=N\NC(=O)c1cccnc1 | 25.1 µM |
| Clc1ccc(N=CNc2ccc(-c3nc4ccccc4[nH]3)cc2)cc1 | 19.6 µM |
| N#Cc1c(N/N=C/c2c(Cl)cccc2Cl)nc(N)nc1N1CCCC1 | > 100 µM |

Task: // lookup GI50 for O=C(c1ccccc1)c1ccc(N2C(=O)C3C4c5ccccc5C(/C=C/C(=O)c5ccccn5)(c5ccccc54)C3C2=O)cc1 (stereo not given)
Result: > 23.1 µM

Task: Same again, this time with O=C(Nc1cccc(C(F)(F)F)c1)Nc1cc(S(=O)(=O)NC2CC2)ccc1-c1ccsc1
Result: 5.95 µM

Task: Same again, this time with COC(=O)C(NC(=O)c1ccccc1)c1ccc(OC)c(I)c1 (stereo not given)
Result: > 100 µM

Task: Same again, this time with COc1cc(/C=C/C(=O)c2c(-c3ccc(Cl)cc3)nc3sc(C)nn23)cc(OC)c1OC
Result: 24.6 µM

Task: Same again, this time with CN(C)C(=O)c1cc2cnc(Nc3ccc(N4CCNCC4)cn3)nc2n1C1CCCC1
Result: 14.1 µM

* * *

Reported TGI values for the following compounds.
# Test system: MOLT-4 leukemia
# Assay info: NCI tumour cell line growth inhibition, 48 h

Study these solved cases before continuing.
| Compound | TGI |
| --- | --- |
| O=C(Nc1nc2ccc([N+](=O)[O-])cc2s1)c1cc([N+](=O)[O-])ccc1Cl | > 100 µM |
| O=C(Cn1c(-c2ccccc2)cc2ccccc21)N1CCOCC1 | > 100 µM |
| Cc1c(Cl)cc(C(C)(C)C)c(O)c1Cc1c(C)c(Cl)cc(C(C)(C)C)c1O | 3.34 µM |
| CC(=O)OC1C(C)OC(OC2C[C@](O)(C(C)=O)Cc3c(O)c4c(c(O)c32)C(=O)c2ccccc2C4=O)C(F)C1OC(C)=O (stereo partly specified) | 0.112 µM |
| CCOC(=O)NC/C=C/CO | > 100 µM |

Now for the compound whose TGI we want.
Task: // lookup TGI for O=C(CO[N+](=O)[O-])OCC(=O)c1ccccc1
Result: > 100 µM
